RUN DESCRIPTION: drug combination growth inhibition, ovarian cancer – cell-based, oncology-focused library, rucaparib conditional, profiling panel (AID 1508598)
CONDITIONS USED: patient-derived ovarian cancer cells, CellTiter-Glo viability, 144 h; at 1.25 µM; OCI-P5x cells; with rucaparib 20 µM; 100% = cells with rucaparib alone
Calls of active or inactive are those of the source.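 Rule for the calls: active = normalized viability below 100% at a tested concentration; inactive = the rest.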
Answer with one of the outcomes given here: active, inactive

COMPOUND	DISCRETE LABEL
Cn1c(=O)c(F)c(Nc2ccc(I)cc2F)c2c(=O)n(C[C@@H](O)CO)cnc21	active
CCc1cc(Nc2nccc(-c3c(-c4ccc(OC)c(C(=O)Nc5c(F)cccc5F)c4)nc4ccccn34)n2)c(OC)cc1N1CCC(N2CCN(S(C)(=O)=O)CC2)CC1	active
Oc1cccc(-c2nc(N3CCOCC3)c3oc4ncccc4c3n2)c1	active
COc1ccc(S(=O)(=O)Nc2cccnc2Nc2ccc(O)cc2)cc1	active
CC(C)C[C@H](NC(=O)CNC(=O)c1cc(Cl)ccc1Cl)B1OC(=O)CC(CC(=O)O)(C(=O)O)O1 (stereo partly drawn)	active
COc1cc2nccc(Oc3ccc(NC(=O)NC4CC4)c(Cl)c3)c2cc1C(N)=O	inactive
O=S(=O)(O)CCSSCCS(=O)(=O)O	active

Request: For this compound, state the assay outcome: CC1(C)CCC(c2ccc(Cl)cc2)=C(CN2CCN(c3ccc(C(=O)NS(=O)(=O)c4ccc(N[C@H](CCN5CCOCC5)CSc5ccccc5)c(S(=O)(=O)C(F)(F)F)c4)cc3)CC2)C1
Result: active

====

RUN DESCRIPTION: growth inhibition, single agents and combos, UWB1.289, cell-based, BGB or cisplatin combos, synergistic combos for chromothripsis tumors (AID 1671456);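 note: cells exposed to compound for four days; 0% = vehicle DMSO and 100% = killing by high DMSO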
CONDITIONS USED: UWB1.289 ovarian carcinoma cells, at 0.5 µM, hits give high values
Calls of active or inactive are those of the source. Rule as the data show it: active = inhibition above about 80%; inactive = the rest.
VALUE TYPE: inhibition

COMPOUND	inhibition
NC(=O)c1nc(F)c[nH]c1=O	4.26% (inactive)
Nc1nc(OCc2cc(Br)cs2)c2[nH]cnc2n1	7.84% (inactive)
Nc1ccc(-c2ccc3ncc4ccc(=O)n(-c5cccc(C(F)(F)F)c5)c4c3c2)cn1	49.8% (inactive)
Cc1ccc2nc(NCCN)c3ncc(C)n3c2c1	-4.12% (inactive)
CN[C@@H]1CN(c2ccc3c(=O)c(C(=O)O)cn(-c4nccs4)c3n2)C[C@H]1OC	14.7% (inactive)

Request: What inhibition value was documented for this compound, COc1cc2ncnc(-n3nc(-c4ccccn4)nc3N)c2cc1OC ?
Result: -16.4% (inactive)

Request: What inhibition value was documented for this compound, O=C(/C=C/c1ccc(CN(CCO)CCc2c[nH]c3ccccc23)cc1)NO ?
Result: 88.8% (active)

Request: What inhibition value was documented for this compound, CN(C)Cc1c(C(=O)NCCOc2ccc(C(=O)NO)cc2)oc2ccccc12 ?
Result: 49.7% (inactive)

Request: What inhibition value was documented for this compound, N=C1CCCN1Cc1[nH]c(=O)[nH]c(=O)c1Cl ?
Result: 19.4% (inactive)

Request: What inhibition value was documented for this compound, CN(C)c1ccc(C(=O)NCCCCCCC(=O)NO)cc1 ?
Result: 31% (inactive)

Request: What inhibition value was documented for this compound, COc1ccc(C(=O)CC2(O)C(=O)Nc3c(Cl)ccc(Cl)c32)cc1 (stereo unspecified) ?
Result: 11.3% (inactive)
